Data credit: patent US20250215030A1

Biological target: Recombinant STAT3 protein (STAT3(G127-I722)) (Homo sapiens, UniProt P40763)
Construct: STAT3(G127-I722)
Sequence (P40763 127-722, species assumed): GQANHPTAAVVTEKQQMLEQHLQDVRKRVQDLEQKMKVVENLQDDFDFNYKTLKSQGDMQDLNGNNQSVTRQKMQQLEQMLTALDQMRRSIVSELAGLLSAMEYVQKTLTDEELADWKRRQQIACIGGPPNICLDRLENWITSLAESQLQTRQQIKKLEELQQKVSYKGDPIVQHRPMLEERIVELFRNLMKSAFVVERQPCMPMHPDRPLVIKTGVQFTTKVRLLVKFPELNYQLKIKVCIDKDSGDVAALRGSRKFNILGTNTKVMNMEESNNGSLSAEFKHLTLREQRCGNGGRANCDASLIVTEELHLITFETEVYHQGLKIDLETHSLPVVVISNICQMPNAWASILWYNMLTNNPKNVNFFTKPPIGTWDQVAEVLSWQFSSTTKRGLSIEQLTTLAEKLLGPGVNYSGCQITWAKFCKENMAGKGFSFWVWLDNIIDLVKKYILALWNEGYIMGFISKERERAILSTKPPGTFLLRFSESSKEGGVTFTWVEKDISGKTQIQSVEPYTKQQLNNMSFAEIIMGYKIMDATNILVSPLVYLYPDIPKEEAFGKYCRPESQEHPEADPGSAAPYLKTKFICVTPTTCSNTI
Assay: STAT3 Fluorescence Polarization (FP) Assay
Conditions: STAT3(G127-I722) 25 nM, probe 5-FAM-GpYLPQTV-NH2 2 nM, 45-minute incubation
Known IC50 of a selection of molecules

Would you kindly share the measured IC50 for O=C(N[C@H]1C[C@@H]2C[C@@H]2C[C@H]2CC[C@@H](C(=O)N[C@H]3CN(c4ncccn4)C[C@@H]3F)N2C1=O)c1cc2cc(CP(=O)(O)O)ccc2s1 ?
> 10000 nM

###

Molecular target: Recombinant STAT6 protein (STAT6(W123-T658)) (Homo sapiens)
Construct: STAT6(W123-T658)
Sequence (P42226 123-658): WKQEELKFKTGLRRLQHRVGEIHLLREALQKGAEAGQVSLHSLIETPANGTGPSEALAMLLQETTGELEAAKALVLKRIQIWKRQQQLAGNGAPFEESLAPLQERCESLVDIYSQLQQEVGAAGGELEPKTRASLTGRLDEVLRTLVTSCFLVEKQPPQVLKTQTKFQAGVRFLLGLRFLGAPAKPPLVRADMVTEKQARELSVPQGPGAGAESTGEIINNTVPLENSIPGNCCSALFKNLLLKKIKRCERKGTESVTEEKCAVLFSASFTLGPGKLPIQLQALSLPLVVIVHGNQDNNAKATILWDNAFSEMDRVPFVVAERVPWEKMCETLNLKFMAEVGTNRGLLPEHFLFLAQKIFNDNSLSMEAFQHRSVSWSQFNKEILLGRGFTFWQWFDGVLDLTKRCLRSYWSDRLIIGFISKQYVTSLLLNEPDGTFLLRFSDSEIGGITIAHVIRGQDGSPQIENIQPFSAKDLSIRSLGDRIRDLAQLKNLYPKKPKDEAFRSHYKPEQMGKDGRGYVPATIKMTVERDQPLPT
Assay: STAT6 Fluorescence Polarization (FP) Assay
Settings: STAT6(W123-T658) 250 nM, probe 5-FAM-ApYKPFQDLI-NH2 2 nM, 45-minute incubation
pIC50: −log10 of the molar value.
Catalogue of pIC50 values

// solved cases for pIC50 follow
compound	pIC50
Cc1cccc(C2CN(C(=O)[C@@H]3CC[C@@H]4C[C@@H]5C[C@@H]5C[C@H](NC(=O)c5cc6cc([C@H](F)P(=O)(O)O)ccc6s5)C(=O)N43)C2)n1 (single isomer, unassigned) [Example 370]	4.52 to 5.52
Cc1ccncc1C1CN(C(=O)[C@@H]2CC[C@@H]3C[C@@H]4C[C@@H]4C[C@H](NC(=O)c4cc5cc(CP(=O)(O)O)ccc5s4)C(=O)N32)C1 [Example 243]	< 4.52
O=C(N[C@H]1C[C@@H]2C[C@@H]2C[C@H]2CC[C@@H](C(=O)N3CC(Cc4cccnc4)C3)N2C1=O)c1cc2cc(CP(=O)(O)O)ccc2s1 [Example 380]	4.52 to 5.52
O=C(N[C@H]1C[C@@H]2C[C@@H]2C[C@H]2CC[C@@H](C(=O)N3CCN(C(=O)c4cc[nH]n4)CC3)N2C1=O)c1cc2cc(C(F)(F)P(=O)(O)O)ccc2s1 [Compound 105]	5.52 to 6.52

Please provide the recorded pIC50 for O=C(N[C@H]1C[C@@H]2C[C@@H]2C[C@H]2CC[C@@H](C(=O)N3CC(c4ncco4)C3)N2C1=O)c1cc2cc(C(F)P(=O)(O)O)ccc2s1 (stereo partly shown) [Example 322] , tested on Recombinant STAT6 protein (STAT6(W123-T658)) (Homo sapiens).
4.52 to 5.52

Same read-out for O=C(N[C@H]1C[C@@H]2C[C@@H]2C[C@H]2CC[C@@H](C(=O)N[C@@H]3CCN(c4cccnn4)C3)N2C1=O)c1cc2cc(C(F)(F)P(=O)(O)O)ccc2s1 [Compound 51] ?
5.52 to 6.52

Quick one: O=C(N[C@H]1C[C@@H]2C[C@@H]2C[C@H]2CC[C@@H](C(=O)N3CC(c4cc[nH]n4)C3)N2C1=O)c1cc2cc(C(F)(F)P(=O)(O)O)ccc2s1 [Compound 111]
5.52 to 6.52
